Tested on: 699152-130-R-J1-PDC complex spheroid growth
Assay: Anticancer human tumor 699152-130-R-J1-PDC patient-derived pancreatic carcinoma cell line growth inhibition [AhR]
Details: curve of first compound; second compound 10 µM
property.measured: IC50

1. CC(C)c1c(-c2ccccc2)nc2c(C#N)c[nH]n2c1=O + Cc1ccccc1N=Nc1ccc(NC(=O)c2ccnn2C)c(C)c1    > 10000 nM
2. CC1COCCN1c1cc(C2(S(C)(=N)=O)CC2)nc(-c2ccnc3[nH]ccc23)n1 (configuration not stated) + Cc1cncc(-c2nc(NCCc3c[nH]c4ccccc34)c3ncn(C(C)C)c3n2)c1    < 31.6 nM
3. CC1COCCN1c1cc(-c2ccnn2C)c2ccnc(-c3ccn[nH]3)c2n1 (configuration not stated) + Cc1ccccc1N=Nc1ccc(NC(=O)c2ccnn2C)c(C)c1    > 1000 nM

For record CC1(C)CCC(CN2CCN(c3ccc(C(=O)NS(=O)(=O)c4ccc(NCC5CCOCC5)c([N+](=O)[O-])c4)c(Oc4cnc5[nH]ccc5c4)c3)CC2)=C(c2ccc(Cl)cc2)C1 + CC(CO)NC(=O)c1cc(-c2ccc(Cl)cc2)nn(-c2cnn(C)c2)c1=O the listed IC50 is > 10000 nM

Lab note: measured IC50 of COc1ccc([C@@H](O)c2cc(-c3ncnc4cc(N5CCOCC5)ccc34)c(F)cc2Cl)nn1 + CC(CO)NC(=O)c1cc(-c2ccc(Cl)cc2)nn(-c2cnn(C)c2)c1=O was 2610 nM

----------
Tested on: 699152-130-R-J1-PDC complex spheroid growth
Test: Anticancer human tumor 699152-130-R-J1-PDC cell line growth inhibition [AhR];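 also: compound exposure lasted 7 days after spheroids had grown for 3 days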
Details: second compound 3.16 µM; first compound 1 µM; stronger effect = lower value
viability, T/C values by entry
State the answer as a number, implicitly in %.

Recorded viability, T/C, per entry:
1) Nc1ccn(C2OC(CO)C(O)C2(F)F)c(=O)n1 (configuration not stated) + CC(CO)NC(=O)c1cc(-c2ccc(Cl)cc2)nn(-c2cnn(C)c2)c1=O    54.3
2) CC1(C)CCC(CN2CCN(c3ccc(C(=O)NS(=O)(=O)c4ccc(NCC5CCOCC5)c([N+](=O)[O-])c4)c(Oc4cnc5[nH]ccc5c4)c3)CC2)=C(c2ccc(Cl)cc2)C1 + CC(CO)NC(=O)c1cc(-c2ccc(Cl)cc2)nn(-c2cnn(C)c2)c1=O    83
3) CC1COCCN1c1cc(C2(S(C)(=N)=O)CC2)nc(-c2ccnc3[nH]ccc23)n1 (configuration not stated) + CC(CO)NC(=O)c1cc(-c2ccc(Cl)cc2)nn(-c2cnn(C)c2)c1=O    86.4
4) CC1COCCN1c1cc(-c2ccnn2C)c2ccnc(-c3ccn[nH]3)c2n1 (configuration not stated) + Cc1ccccc1N=Nc1ccc(NC(=O)c2ccnn2C)c(C)c1    60.1
5) COc1cc(Nc2ncc3c(n2)-c2ccc(Cl)cc2C(c2c(F)cccc2OC)=NC3)ccc1C(=O)O + CC(CO)NC(=O)c1cc(-c2ccc(Cl)cc2)nn(-c2cnn(C)c2)c1=O    59.6
6) CC1COCCN1c1cc(C2(S(C)(=N)=O)CC2)nc(-c2ccnc3[nH]ccc23)n1 (configuration not stated) + Cc1cncc(-c2nc(NCCc3c[nH]c4ccccc34)c3ncn(C(C)C)c3n2)c1    101
7) COc1cc(Nc2ncc3c(n2)-c2ccc(Cl)cc2C(c2c(F)cccc2OC)=NC3)ccc1C(=O)O + Cc1ccccc1N=Nc1ccc(NC(=O)c2ccnn2C)c(C)c1    61.1
8) NS(=O)(=O)OCC1CC(n2ccc3c(NC4CCc5ccccc54)ncnc32)CC1O (configuration not stated) + Cc1cncc(-c2nc(NCCc3c[nH]c4ccccc34)c3ncn(C(C)C)c3n2)c1    16.5
9) O=C(C=Cc1cccc(S(=O)(=O)Nc2ccccc2)c1)NO + Cc1ccccc1N=Nc1ccc(NC(=O)c2ccnn2C)c(C)c1    115
10) COc1ccc([C@@H](O)c2cc(-c3ncnc4cc(N5CCOCC5)ccc34)c(F)cc2Cl)nn1 + Cc1cncc(-c2nc(NCCc3c[nH]c4ccccc34)c3ncn(C(C)C)c3n2)c1    59.8

Documented viability, T/C of Nc1ncn(C2CC(O)C(CO)O2)c(=O)n1 (configuration not stated) + CC(CO)NC(=O)c1cc(-c2ccc(Cl)cc2)nn(-c2cnn(C)c2)c1=O : 70

The molecule listed as Nc1ccccc1NC(=O)c1ccc(CNC(=O)OCc2cccnc2)cc1 + Cc1cncc(-c2nc(NCCc3c[nH]c4ccccc34)c3ncn(C(C)C)c3n2)c1 has a reported viability, T/C of 64.2

----------
Test system: 699152-130-R-J1-PDC complex spheroid growth
Assay: Anticancer human tumor 699152-130-R-J1-PDC cell line growth inhibition [AhR];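 also: compound exposure lasted 7 days after spheroids had grown for 3 days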
Settings: second compound 10 µM; first compound 0.0316 µM; stronger effect = lower value
property.measured: viability, T/C (%)
Please reply with the bare figure in % and do not write the unit itself.

1. NS(=O)(=O)OCC1CC(n2ccc3c(NC4CCc5ccccc54)ncnc32)CC1O (stereo not given) + CC(CO)NC(=O)c1cc(-c2ccc(Cl)cc2)nn(-c2cnn(C)c2)c1=O    115
2. CC(C)c1c(-c2ccccc2)nc2c(C#N)c[nH]n2c1=O + Cc1cncc(-c2nc(NCCc3c[nH]c4ccccc34)c3ncn(C(C)C)c3n2)c1    4.82
3. COc1ccc([C@@H](O)c2cc(-c3ncnc4cc(N5CCOCC5)ccc34)c(F)cc2Cl)nn1 + Cc1cncc(-c2nc(NCCc3c[nH]c4ccccc34)c3ncn(C(C)C)c3n2)c1    4.98
4. CC1(C)CCC(CN2CCN(c3ccc(C(=O)NS(=O)(=O)c4ccc(NCC5CCOCC5)c([N+](=O)[O-])c4)c(Oc4cnc5[nH]ccc5c4)c3)CC2)=C(c2ccc(Cl)cc2)C1 + CC(CO)NC(=O)c1cc(-c2ccc(Cl)cc2)nn(-c2cnn(C)c2)c1=O    90.8

From here, focus on the item given below.
Measured viability, T/C of CC1COCCN1c1cc(C2(S(C)(=N)=O)CC2)nc(-c2ccnc3[nH]ccc23)n1 (stereo not given) + CC(CO)NC(=O)c1cc(-c2ccc(Cl)cc2)nn(-c2cnn(C)c2)c1=O : 78.5

----------
System: 699152-130-R-J1-PDC complex spheroid growth
Assay: Anticancer human tumor 699152-130-R-J1-PDC cell line growth inhibition [AhR];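 also: compound exposure lasted 7 days after spheroids had grown for 3 days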
Conditions: second compound 0.316 µM; first compound 0.1 µM; stronger effect = lower value
From the text: Multicellular complex tumor spheroid response to aryl hydrocarbon receptor antagonists in combination with a variety of drugs and investigational agents in selected tumor cell lines […] Compounds. […] If the clinical Cmax for an agent had not been determined, the highest concentration tested was 10 microM (Table 1). […]
property.measured: viability, T/C (%)
Provide only the numeric value, understood in %.

Would you please look over these solved cases?
1. COc1cc(Nc2ncc3c(n2)-c2ccc(Cl)cc2C(c2c(F)cccc2OC)=NC3)ccc1C(=O)O + Cc1cncc(-c2nc(NCCc3c[nH]c4ccccc34)c3ncn(C(C)C)c3n2)c1    81
2. CC1(C)CCC(CN2CCN(c3ccc(C(=O)NS(=O)(=O)c4ccc(NCC5CCOCC5)c([N+](=O)[O-])c4)c(Oc4cnc5[nH]ccc5c4)c3)CC2)=C(c2ccc(Cl)cc2)C1 + Cc1cncc(-c2nc(NCCc3c[nH]c4ccccc34)c3ncn(C(C)C)c3n2)c1    110
3. CC[C@@]1(O)C(=O)OCc2c1cc1n(c2=O)Cc2cc3c(CN(C)C)c(O)ccc3nc2-1 + Cc1ccccc1N=Nc1ccc(NC(=O)c2ccnn2C)c(C)c1    45.5

compound NS(=O)(=O)OCC1CC(n2ccc3c(NC4CCc5ccccc54)ncnc32)CC1O (stereo unspecified) + CC(CO)NC(=O)c1cc(-c2ccc(Cl)cc2)nn(-c2cnn(C)c2)c1=O , viability, T/C observed: 132

Notebook: O=C(c1cc(Cc2n[nH]c(=O)c3ccccc23)ccc1F)N1CCN(C(=O)C2CC2)CC1 + Cc1ccccc1N=Nc1ccc(NC(=O)c2ccnn2C)c(C)c1 , viability, T/C read as 84.2

viability, T/C recorded for this compound, COc1cccc2c1C(=O)c1c(O)c3c(c(O)c1C2=O)CC(O)(C(=O)CO)CC3OC1CC(N)C(O)C(C)O1 (stereo unspecified) + Cc1ccccc1N=Nc1ccc(NC(=O)c2ccnn2C)c(C)c1 , is 58.8

GET /value?item= CC1(C)CCC(CN2CCN(c3ccc(C(=O)NS(=O)(=O)c4ccc(NCC5CCOCC5)c([N+](=O)[O-])c4)c(Oc4cnc5[nH]ccc5c4)c3)CC2)=C(c2ccc(Cl)cc2)C1 + Cc1ccccc1N=Nc1ccc(NC(=O)c2ccnn2C)c(C)c1 &field=viability, T/C returns 103

Per the records, this compound ( COc1cc(Nc2ncc3c(n2)-c2ccc(Cl)cc2C(c2c(F)cccc2OC)=NC3)ccc1C(=O)O + Cc1ccccc1N=Nc1ccc(NC(=O)c2ccnn2C)c(C)c1 ) has viability, T/C equal to 68.7

Memo: Nc1ccn(C2OC(CO)C(O)C2(F)F)c(=O)n1 (stereo unspecified) + Cc1ccccc1N=Nc1ccc(NC(=O)c2ccnn2C)c(C)c1 , reported viability, T/C: 58.4

According to the records, this compound O=C(c1cc(Cc2n[nH]c(=O)c3ccccc23)ccc1F)N1CCN(C(=O)C2CC2)CC1 + Cc1cncc(-c2nc(NCCc3c[nH]c4ccccc34)c3ncn(C(C)C)c3n2)c1 displays viability, T/C of 101

Record summary for CC1COCCN1c1cc(C2(S(C)(=N)=O)CC2)nc(-c2ccnc3[nH]ccc23)n1 (stereo unspecified) + Cc1cncc(-c2nc(NCCc3c[nH]c4ccccc34)c3ncn(C(C)C)c3n2)c1 : reported viability, T/C = 106
